# STUDY SYSTEM: cdMMP-14 (Homo sapiens)
pIC50: −log10 of the molar value. Where a name gives a salt, the structure may show the parent alone.
Assign class by pIC50: not lower than 6 means YES; lower than 6 means NO.

COMPOUND: O=C1C[C@@H](C(=O)NC2=NN=C(c3ccc(Cl)cc3)CS2)NC(=O)N1 [Example 30]
STUDY SYSTEM: cdMMP-14 (Homo sapiens)
CATEGORY LABEL: YES

COMPOUND: C[C@H](NS(=O)(=O)c1ccccc1)C(=O)NC1=NN=C(c2ccc(Br)cc2)CS1 [Example 6]
STUDY SYSTEM: cdMMP-14 (Homo sapiens)
CATEGORY LABEL: YES

COMPOUND: C[C@H](NS(=O)(=O)c1ccccc1)C(=O)NC1=NN=C(c2ccc([N+](=O)[O-])cc2)CS1 [Example 9]
STUDY SYSTEM: cdMMP-14 (Homo sapiens)
CATEGORY LABEL: YES

As a next step, examine the compound that follows.
Query string: Answer whether pIC50 of C=CCNC1=NN=C(c2ccc(Cl)cc2)CS1 [Example 31, hydrobromide] is greater than or equal to 6.
Result string: NO
